# Minimal inhibitory concentration (MIC) values compiled below
System: Candida albicans IFO. 1385
Assay: In vitro antifungal activity, microbroth dilution MIC
Type: cell-based
Settings: C. albicans IFO. 1385, RPMI-1640, 35° C., 4 to 48 hours

- compound: "COc1ccc(C(=C(F)OCC2COC(Cn3ccnc3)(c3ccc(Cl)cc3Cl)O2)C(F)(F)F)cc1 (stereo not shown)"
  target_desc: "Candida albicans IFO. 1385"
  Minimal inhibitory concentration (MIC) [µg/mL]: 1.56
- compound: "FC(=Cc1ccc(Cl)cc1)OCC1COC(Cn2ccnc2)(c2ccc(Cl)cc2Cl)O1 (stereo not shown)"
  target_desc: "Candida albicans IFO. 1385"
  Minimal inhibitory concentration (MIC) [µg/mL]: 0.39
- compound: "FC(OCC1COC(Cn2ccnc2)(c2ccc(F)cc2F)O1)=C(c1ccccc1)C(F)(F)F (mixture of isomers)"
  target_desc: "Candida albicans IFO. 1385"
  Minimal inhibitory concentration (MIC) [µg/mL]: 0.39
- compound: "Cc1cc(C)cc(C=C(F)OCC2COC(Cn3ccnc3)(c3ccc(F)cc3F)O2)c1 (mixture of isomers)"
  target_desc: "Candida albicans IFO. 1385"
  Minimal inhibitory concentration (MIC) [µg/mL]: 0.78

* * *

System: Candida albicans IFO. 1385
Test: In vitro antifungal activity, microbroth dilution MIC
Format: cell-based
Conditions: RPMI-1640, 35° C., 4 to 48 hours, no growth observed
Text: […]
test_readout: Minimal inhibitory concentration(MIC), C. albicans IFO. 1385

- compound: "Cc1cc(C)cc(C(=C(F)OCC2COC(Cn3cncn3)(c3ccc(Cl)cc3Cl)O2)C(F)(F)F)c1 (mixture of isomers)"
  result: ">100 µg/mL"
- compound: "FC(=C(c1ccc2c(c1)OCO2)C(F)(F)F)N1CCN(c2ccc(OCC3COC(Cn4ccnc4)(c4ccc(Cl)cc4Cl)O3)cc2)CC1 (mixture of isomers)"
  result: "1.56 µg/mL"
- compound: "FC(=C(c1ccc2c(c1)OCO2)C(F)(F)F)N1CCN(c2ccc(OCC3COC(Cn4ccnc4)(c4ccc(F)cc4F)O3)cc2)CC1 (mixture of isomers)"
  result: "0.78 µg/mL"
- compound: "CCc1ccc(C(=C(F)N2CCN(c3ccc(OCC4COC(Cn5ccnc5)(c5ccc(Cl)cc5Cl)O4)cc3)CC2)C(F)(F)F)cc1 (mixture of isomers)"
  result: "3.13 µg/mL"
- compound: "CCc1ccc(C=C(F)OCC2COC(Cn3cncn3)(c3ccc(Cl)cc3Cl)O2)cc1 (mixture of isomers)"
  result: "1.56 µg/mL"

* * *

Test system: Candida tropicalis A. 13803
Assay: In vitro antifungal activity, microbroth dilution MIC
Assay type: cell-based
Details: RPMI-1640, 35° C., 4 to 48 hours, no growth observed
test_readout: Minimal inhibitory concentration(MIC), C. tropicalis A. 13803

- compound: "FC(=C(c1ccc(F)cc1)C(F)(F)F)N1CCN(c2ccc(OCC3COC(Cn4ccnc4)(c4ccc(F)cc4F)O3)cc2)CC1 (mixture of isomers) [Ex. 148]"
  result: ">100 µg/mL"
- compound: "FC(=Cc1ccc(F)cc1)OCC1COC(Cn2cncn2)(c2ccc(Cl)cc2Cl)O1 (mixture of isomers) [Ex. 77]"
  result: "100 µg/mL"
- compound: "FC(Oc1ccc(OCC2COC(Cn3ccnc3)(c3ccc(F)cc3F)O2)cc1)=C(c1ccccc1)C(F)(F)F (mixture of isomers) [Ex. 106]"
  result: ">100 µg/mL"
- compound: "FC(=C(c1ccc(C(F)(F)F)cc1)C(F)(F)F)N1CCN(c2ccc(OCC3COC(Cn4ccnc4)(c4ccc(F)cc4F)O3)cc2)CC1 (mixture of isomers) [Ex. 142]"
  result: ">100 µg/mL"
- compound: "FC(=C(c1ccc(Cl)cc1)C(F)(F)F)N1CCN(c2ccc(OCC3COC(Cn4ccnc4)(c4ccc(F)cc4F)O3)cc2)CC1 (mixture of isomers) [Ex. 149]"
  result: ">100 µg/mL"

* * *

Tested on: Candida tropicalis A. 13803
Test: In vitro antifungal activity, microbroth dilution MIC
Assay type: cell-based
Settings: RPMI-1640, 35° C., 4 to 48 hours, no growth observed
# Minimal inhibitory concentration(MIC), C. tropicalis A. 13803 values compiled below
test_readout: Minimal inhibitory concentration(MIC), C. tropicalis A. 13803

- molecule: "COc1ccc(C(=C(F)OCC2COC(Cn3cncn3)(c3ccc(Cl)cc3Cl)O2)C(F)(F)F)cc1 (mixture of isomers) [Ex. 84]"
  target_desc: "Candida tropicalis A. 13803"
  result: ">100 µg/mL"
- molecule: "FC(=Cc1cccc(Cl)c1)Oc1ccc(OCC2COC(Cn3ccnc3)(c3ccc(Cl)cc3Cl)O2)cc1 (mixture of isomers) [Ex. 91]"
  target_desc: "Candida tropicalis A. 13803"
  result: ">100 µg/mL"
- molecule: "Cc1cccc(C(=C(F)OCC2COC(Cn3cncn3)(c3ccc(Cl)cc3Cl)O2)C(F)(F)F)c1 (mixture of isomers) [Ex. 80]"
  target_desc: "Candida tropicalis A. 13803"
  result: ">100 µg/mL"

* * *

System: Candida pseudotropicalis K. 11658
Assay: In vitro antifungal activity, microbroth dilution MIC
Assay type: cell-based
Details: C. pseudotropicalis K. 11658, RPMI-1640, 35° C., 4 to 48 hours

- compound: "FC(=Cc1ccc(Cl)cc1)OCC1COC(Cn2ccnc2)(c2ccc(F)cc2F)O1 (mixture of isomers) [Ex. 47]"
  rel: "="
  Minimal inhibitory concentration (MIC) / µg/mL: 6.25
- compound: "COc1cccc(C=C(F)OCC2COC(Cn3ccnc3)(c3ccc(F)cc3F)O2)c1 (mixture of isomers) [Ex. 43]"
  rel: "="
  Minimal inhibitory concentration (MIC) / µg/mL: 6.25
- compound: "COc1cccc(C=C(F)OCC2COC(Cn3ccnc3)(c3ccc(Cl)cc3Cl)O2)c1 (stereo not shown) [Ex. 8]"
  rel: "="
  Minimal inhibitory concentration (MIC) / µg/mL: 12.5
- compound: "FC(OCC1COC(Cn2ccnc2)(c2ccc(F)cc2F)O1)=C(c1ccc(Oc2ccccc2)cc1)C(F)(F)F (mixture of isomers) [Ex. 63]"
  rel: ">"
  Minimal inhibitory concentration (MIC) / µg/mL: 100
- compound: "Cc1cc(C)cc(C(=C(F)OCC2COC(Cn3ccnc3)(c3ccc(F)cc3F)O2)C(F)(F)F)c1 (mixture of isomers) [Ex. 57]"
  rel: ">"
  Minimal inhibitory concentration (MIC) / µg/mL: 100
- compound: "CCOc1ccc(C=C(F)OCC2COC(Cn3ccnc3)(c3ccc(F)cc3F)O2)cc1 (mixture of isomers) [Ex. 44]"
  rel: "="
  Minimal inhibitory concentration (MIC) / µg/mL: 6.25
- compound: "Cc1cccc(C(=C(F)OCC2COC(Cn3ccnc3)(c3ccc(F)cc3F)O2)C(F)(F)F)c1 (mixture of isomers) [Ex. 53]"
  rel: ">"
  Minimal inhibitory concentration (MIC) / µg/mL: 100
- compound: "Cc1ccc(C(=C(F)OCC2COC(Cn3ccnc3)(c3ccc(F)cc3F)O2)C(F)(F)F)cc1 (mixture of isomers) [Ex. 54]"
  rel: "="
  Minimal inhibitory concentration (MIC) / µg/mL: 100
- compound: "FC(OCC1COC(Cn2ccnc2)(c2ccc(F)cc2F)O1)=C(c1cccs1)C(F)(F)F (mixture of isomers) [Ex. 68]"
  rel: "="
  Minimal inhibitory concentration (MIC) / µg/mL: 25.0
- compound: "FC(OCC1COC(Cn2ccnc2)(c2ccc(F)cc2F)O1)=C(c1cccc(C(F)(F)F)c1)C(F)(F)F (mixture of isomers) [Ex. 58]"
  rel: "="
  Minimal inhibitory concentration (MIC) / µg/mL: 50.0
- compound: "Cc1ccc(C(=C(F)OCC2COC(Cn3ccnc3)(c3ccc(Cl)cc3Cl)O2)C(F)(F)F)cc1C (stereo not shown) [Ex. 23]"
  rel: "="
  Minimal inhibitory concentration (MIC) / µg/mL: 100
- compound: "Cc1cc(C)c(C=C(F)OCC2COC(Cn3ccnc3)(c3ccc(Cl)cc3Cl)O2)cc1C (stereo not shown) [Ex. 7]"
  rel: "="
  Minimal inhibitory concentration (MIC) / µg/mL: 12.5
- compound: "Cc1ccc(C(=C(F)OCC2COC(Cn3ccnc3)(c3ccc(Cl)cc3Cl)O2)C(F)(F)F)cc1 (stereo not shown) [Ex. 21]"
  rel: "="
  Minimal inhibitory concentration (MIC) / µg/mL: 100
- compound: "FC(=Cc1ccc(Cl)cc1)OCC1COC(Cn2ccnc2)(c2ccc(Cl)cc2Cl)O1 (stereo not shown) [Ex. 14]"
  rel: "="
  Minimal inhibitory concentration (MIC) / µg/mL: 3.13
- compound: "COc1ccc(C=C(F)OCC2COC(Cn3ccnc3)(c3ccc(Cl)cc3Cl)O2)cc1 (stereo not shown) [Ex. 9]"
  rel: "="
  Minimal inhibitory concentration (MIC) / µg/mL: 6.25
- compound: "FC(OCC1COC(Cn2ccnc2)(c2ccc(Cl)cc2Cl)O1)=C(c1cccs1)C(F)(F)F (mixture of isomers) [Ex. 35]"
  rel: ">"
  Minimal inhibitory concentration (MIC) / µg/mL: 100
- compound: "FC(=Cc1cccc2ccccc12)OCC1COC(Cn2ccnc2)(c2ccc(F)cc2F)O1 (mixture of isomers) [Ex. 51]"
  rel: "="
  Minimal inhibitory concentration (MIC) / µg/mL: 25.0
- compound: "FC(OCC1COC(Cn2ccnc2)(c2ccc(F)cc2F)O1)=C(c1ccccc1)C(F)(F)F (mixture of isomers) [Ex. 52]"
  rel: "="
  Minimal inhibitory concentration (MIC) / µg/mL: 50.0
- compound: "FC(=Cc1cccc(Cl)c1)OCC1COC(Cn2ccnc2)(c2ccc(Cl)cc2Cl)O1 (stereo not shown) [Ex. 13]"
  rel: "="
  Minimal inhibitory concentration (MIC) / µg/mL: 1.56
- compound: "FC(=Cc1cccc(F)c1)OCC1COC(Cn2ccnc2)(c2ccc(Cl)cc2Cl)O1 (stereo not shown) [Ex. 15]"
  rel: "="
  Minimal inhibitory concentration (MIC) / µg/mL: 3.13
- compound: "Cc1cc(C)cc(C(=C(F)OCC2COC(Cn3ccnc3)(c3ccc(Cl)cc3Cl)O2)C(F)(F)F)c1 (stereo not shown) [Ex. 24]"
  rel: "="
  Minimal inhibitory concentration (MIC) / µg/mL: 100
- compound: "Cc1cccc(C=C(F)OCC2COC(Cn3ccnc3)(c3ccc(Cl)cc3Cl)O2)c1 (stereo not shown) [Ex. 2]"
  rel: "="
  Minimal inhibitory concentration (MIC) / µg/mL: 12.5

Entry source: patent US6376497B1
